Every entry's value here was drawn from patent US20230295310A1.

target: T1, human CD3 expressed on cells (human, UniProt P07766 23-207; P04234 22-171; P09693 23-182); assay: flow cytometry, 25 nM
T1 construct: whole, on cells; CD3 complex on Jurkat cells and on human primary T cells
T1 sequence (P07766 23-207, chain 1 of 3): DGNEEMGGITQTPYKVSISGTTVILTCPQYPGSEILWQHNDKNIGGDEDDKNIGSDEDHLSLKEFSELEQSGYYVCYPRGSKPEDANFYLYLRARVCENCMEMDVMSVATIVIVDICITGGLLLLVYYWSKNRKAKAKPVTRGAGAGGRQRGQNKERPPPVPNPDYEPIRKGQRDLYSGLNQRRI
T1 sequence (P04234 22-171, chain 2 of 3): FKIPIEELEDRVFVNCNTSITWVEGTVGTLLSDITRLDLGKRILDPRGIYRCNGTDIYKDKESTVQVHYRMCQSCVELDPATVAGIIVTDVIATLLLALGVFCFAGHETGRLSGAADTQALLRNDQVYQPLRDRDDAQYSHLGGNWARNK
T1 sequence (P09693 23-182, chain 3 of 3): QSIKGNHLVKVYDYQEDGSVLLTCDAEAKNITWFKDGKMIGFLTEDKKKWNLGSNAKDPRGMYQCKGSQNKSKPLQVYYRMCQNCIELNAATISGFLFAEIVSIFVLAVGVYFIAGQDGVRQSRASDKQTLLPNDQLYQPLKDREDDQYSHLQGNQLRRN
Metric name: Jurkat Cell Binding (FOI)
Numbers only, in FOI.

1. mAb 160 (antibody, V domains shown) VH: EVQLVESGGGLVQPGRSLRLSCAVSGFTFNDYTMHWVRQVPGKGLEWVSGISWNSGSIGYADSVKGRFTISRDNAKNSLYLQMNSLRAEDTALYFCAKDSSGYGHYYYYYMDVWGRGTTVTVSS VL: EIVMTQSPATLSVSPGERATLSCRASQSVRKNLAWYQQKPGQAPRLLIYGASTRATGIPARFSGSGSGTEFTLTISSLQSEDFAVYYCQLYNNWPHFGQGTRLEIK | 115
2. mAb 113 (antibody, V domains shown) VH: EVQLVESGGGLVKTGGSLRLSCVASGFSFKKAWMNWVRQAPGKGLEWVGRIKRNTDGGTTDYAAPVKGRFTLSRDDSKNTLYLQMNSLKTEDTAVYYCTTLDSSSWYVGYYYMDVWGKGTTVTVSS VL: DIQMTQSPSSVSASVGDRVTITCRASQDINNWLAWYQQKPGKAPKILIYTASSLQSGVPSRFSGSGSGTDFTLTISSLQPEDFATYYCQQAHSLPITFGQGTRLEIK | 157
3. mAb 93 (antibody, V domains shown) VH: QVQLVESGGGVVQPGRSLRLSCAASGFTFRGYGMHWVRQAPGKGLEWVAIIYYNGNNKYYADSVKGRFTISRDNSKNTLYLQMNSLRAEDTAVYYCARGGGYNWFDPWGQGTLVTVSS VL: DIQMTQSPSSLSASVGDRVTITCRASQSISNYLNWYQQEPGKAPKLLIYTASSLQSGVPSRFSGSGSGTAFTLTISSLQPEDFAIYYCQRSSSPPFTFGPGTKLDIK | 175
4. mAb 165 (antibody, V domains shown) VH: EVQLVESGGGLVKTGGSLRLSCVASGFSFKKAWMNWVRQAPGKGLEWVGRIKRNTDGGTADYAAPVKGRFTLSRDDSKRTLYLQMNSLKTEDTAVYYCTTLDSSSRYVGYYYMDVWGKGTTVTVSS VL: DIQMTQSPSSVSASVGDRVIITCRASQDINNWLAWYQQKPGKVPKLLIYTASSLQSGVPSRFSGSGSGTDFTLTIGSLQPEDFATYYCQQAHSLPITFGQGTRLEIK | 154

Okay, now this binder:
Please report the measured Jurkat Cell Binding (FOI) for mAb 121 (antibody, V domains shown) VH: EVQLVESGGGLVQPGRSLRLSCATSGFTFADYTMHWVRQAPGKGLEWVSGISWNSGSIDYADSVKGRFTISRDNAKKSLYLQMNSLRAEDTALYFCAKDSSGYGHYYFYYLDVWGKGTTVTVSS VL: EIVMTQSPGTLSVSPGKRATLSCRASQSVSSNLAWYQQKPGQGPRLLIYSTSTRATGIPARFSGSGSGTEFTLTISSLQSEDSAVYYCQHYNNWPHFGQGTRLEIK
101
